- experimental_system: NPM-ALK (Homo sapiens)
- Construct: nucleophosmin (NPM, NPM1; human P06748) fusion partner; the other entry of the earlier key: Npm1 (Q61937, Nucleophosmin)
- assay_procedure: NPM-ALK BaF3 assay (growth inhibition of BaF3-NPM-ALK cells)
- assay_context: human NPM-ALK overexpressing murine BaF3 cells
pIC50: −log10 of the molar value.
result_type: pIC50

Worked examples follow.
>  <molecule_smiles>
COc1cc(C2CCN(C(=O)[C@H](N)CO)CC2)c(C)cc1Nc1nc(Nc2ccccc2S(=O)(=O)C(C)C)n2nccc2n1

>  <experimental_system>
NPM-ALK (Homo sapiens)

>  <pIC50>
7.47

$$$$
>  <molecule_smiles>
Cc1cc(Nc2nc(Nc3ccccc3S(=O)(=O)C(C)C)n3nccc3n2)c(OC(C)C)cc1C1CCN(Cc2cnn(C)c2)CC1

>  <experimental_system>
NPM-ALK (Homo sapiens)

>  <pIC50>
7.10

$$$$

1. COc1cc(C2CCN(C(=O)[C@@H]3C[C@@H](O)CN3C)CC2)c(C)cc1Nc1nc(Nc2ccccc2S(=O)(=O)C(C)C)n2nccc2n1
2. CC(C)S(=O)(=O)c1ccccc1Nc1nc(Nc2ccc3c(c2)CNCC3)nc2ccnn12
3. Cc1cc(C2CCN(CCS(C)(=O)=O)CC2)ccc1Nc1nc(Nc2ccccc2S(=O)(=O)C(C)C)n2nccc2n1
Rank order required: pIC50, descending. Answer format: the labels, ordered as requested.
3, 1, 2

a. Cc1cc(C2CCN(C(=O)CCN(C)C)CC2)c(C)cc1Nc1nc(Nc2ccccc2S(=O)(=O)C(C)C)n2nccc2n1
b. CNC(=O)CN1CCC(c2cc(OC)c(Nc3nc(Nc4ccccc4S(=O)(=O)C(C)C)n4nccc4n3)cc2C)CC1
From the items above, decide which of a and b has the lower pIC50 reading. Selection: enter the item's label.
a

* * *

- experimental_system: NPM-ALK (Homo sapiens)
- Construct: nucleophosmin (NPM, NPM1; human P06748) fusion partner; the other entry of the earlier key: Npm1 (Q61937, Nucleophosmin)
- assay_procedure: NPM-ALK BaF3 assay (growth inhibition of BaF3-NPM-ALK cells)
- assay_context: human NPM-ALK overexpressing murine BaF3 cells
result_type: IC50 (nM)

1. CC(C)S(=O)(=O)c1ccccc1Nc1nc(Nc2ccc3c(c2)CN(CCS(C)(=O)=O)CC3)nc2ccnn12 [Ex 39]
2. COc1cc(C2CCN(C(=O)[C@H]3C[C@@H](O)CN3)CC2)c(C)cc1Nc1nc(Nc2ccccc2S(=O)(=O)C(C)C)n2nccc2n1 [Ex 56]
3. COCCNCC(=O)N1CCC(c2cc(OC)c(Nc3nc(Nc4ccccc4S(=O)(=O)C(C)C)n4nccc4n3)cc2C)CC1 [Ex 74]
Sort low-to-high on IC50, please. Write the labels out in the order the request specifies.
3, 2, 1
(3: 28 nM, 2: 79 nM, 1: 464 nM)

* * *

- experimental_system: NPM-ALK (Homo sapiens, UniProt Q9UM73)
- Construct: nucleophosmin (NPM, NPM1; human P06748) fusion partner; the other entry of the earlier key: Npm1 (Q61937, Nucleophosmin)
- Sequence (Q9UM73 with tags, fused parts or gaps): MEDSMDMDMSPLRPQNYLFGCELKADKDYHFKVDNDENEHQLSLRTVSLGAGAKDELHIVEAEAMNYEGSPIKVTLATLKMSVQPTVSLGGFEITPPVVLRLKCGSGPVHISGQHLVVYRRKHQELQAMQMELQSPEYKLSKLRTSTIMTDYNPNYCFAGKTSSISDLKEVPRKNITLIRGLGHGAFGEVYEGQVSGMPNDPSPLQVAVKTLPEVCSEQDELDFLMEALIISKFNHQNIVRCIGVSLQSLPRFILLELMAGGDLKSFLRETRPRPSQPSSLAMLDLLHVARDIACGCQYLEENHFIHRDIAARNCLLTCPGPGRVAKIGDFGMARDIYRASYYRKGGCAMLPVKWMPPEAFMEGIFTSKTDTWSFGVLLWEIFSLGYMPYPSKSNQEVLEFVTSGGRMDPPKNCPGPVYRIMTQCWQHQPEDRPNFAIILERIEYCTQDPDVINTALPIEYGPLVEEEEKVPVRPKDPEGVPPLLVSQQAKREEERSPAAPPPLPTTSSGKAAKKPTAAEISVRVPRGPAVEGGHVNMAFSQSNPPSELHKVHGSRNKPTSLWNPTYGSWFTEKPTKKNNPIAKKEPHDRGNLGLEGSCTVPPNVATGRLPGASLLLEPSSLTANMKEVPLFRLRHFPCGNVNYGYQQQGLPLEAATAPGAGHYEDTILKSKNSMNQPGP
- assay_procedure: NPM-ALK BaF3 assay (growth inhibition of BaF3-NPM-ALK cells)
- assay_context: human NPM-ALK overexpressing murine BaF3 cells
result_type: IC50 (nM)

Look over these answered cases.
>  <compound>
COc1cc(C2CCN(C(=O)CN3CC[C@H](O)C3)CC2)c(C)cc1Nc1nc(Nc2ccccc2S(=O)(=O)C(C)C)n2nccc2n1 [Ex 77]

>  <measured>
36

$$$$
>  <compound>
COc1cc(C2CCN(C(=O)[C@H]3COCCN3)CC2)c(C)cc1Nc1nc(Nc2ccccc2S(=O)(=O)C(C)C)n2nccc2n1 [Ex 70]

>  <measured>
35

$$$$
>  <compound>
CCCN(CCC)CC(=O)N1CCC(c2cc(OC)c(Nc3nc(Nc4ccccc4S(=O)(=O)C(C)C)n4nccc4n3)cc2C)CC1 [Ex 102]

>  <measured>
49

$$$$
>  <compound>
COc1cc(C2CCN(C3CCSCC3)CC2)c(C)cc1Nc1nc(Nc2ccccc2S(=O)(=O)C(C)C)n2nccc2n1 [Ex 84]

>  <measured>
25

$$$$

A. CC(C)S(=O)(=O)c1ccccc1Nc1nc(Nc2ccc3c(c2)CCN(CCS(C)(=O)=O)C3)nc2ccnn12 [Ex 40]
B. COc1cc(C2CCN(C(=O)C3CCCN3)CC2)c(C)cc1Nc1nc(Nc2ccccc2S(=O)(=O)C(C)C)n2nccc2n1 (stereo not drawn) [Ex 31]
C. CN[C@H](C)C(=O)N1CCC(c2cc(OC)c(Nc3nc(Nc4ccccc4S(=O)(=O)C(C)C)n4nccc4n3)cc2C)CC1 [Ex 44]
D. COc1cc(C2CCN(C(=O)C3CCCCN3)CC2)c(C)cc1Nc1nc(Nc2ccccc2S(=O)(=O)C(C)C)n2nccc2n1 (stereo not drawn) [Ex 29]
Arrange the 4 compounds from largest to smallest IC50. # answer = labels listed in requested order
A, D, B, C
(A: 136 nM, D: 54 nM, B: 36 nM, C: 18 nM)

I. COc1cc(C2CCN(C(=O)[C@H](C)N(C)C)CC2)c(C)cc1Nc1nc(Nc2ccccc2S(=O)(=O)C(C)C)n2nccc2n1 [Ex 66]
II. COc1cc(C2CCN(C(=O)CCN3CCCC3)CC2)c(C)cc1Nc1nc(Nc2ccccc2S(=O)(=O)C(C)C)n2nccc2n1 [Ex 104]
III. COc1cc(C2CCN(C(=O)CCN(C)C)CC2)c(C)cc1Nc1nc(Nc2ccccc2S(=O)(=O)C(C)C)n2nccc2n1 [Ex 25]
IV. CNC(=O)CCN1CCC(c2cc(OC)c(Nc3nc(Nc4ccccc4S(=O)(=O)C(C)C)n4nccc4n3)cc2C)CC1 [Ex 90]
Given 4 compounds, produce a descending ranking by IC50. I'd appreciate it if you listed the labels in the requested order.
II, I, III, IV
